Hello, the source for this data is paper PMC6271476, in case you need it.

- Protocol Details: Stability (degradation kinetics, recovery) in different solvent environments by RP-UPLC
- Format: physicochemical
- Test Settings: 0.9% NaCl; read-out: degradation t1/2 (converted)
Assay Endpoint: half-life at 0.1 mg/mL (h)

In [3]: df
Out[3]:
                                   compound          assay_endpoint  u  value_reported
0  O=C1C=CC(=O)c2c1[nH]c(-c1ccccc1[N+](=O)[O-])[n+]2[O-] [Compound 6b]  half-life at 0.1 mg/mL  h             142
1  O=C1C=CC(=O)c2[nH]c(-c3ccccc3[N+](=O)[O-])nc21 [Compound 5b]  half-life at 0.1 mg/mL  h             155
